Data provenance is ChEMBL document CHEMBL2157940.

# TESTED ON: Low molecular weight phosphotyrosine protein phosphatase (Homo sapiens)
# Sequence (P24666 whole entry, canonical isoform): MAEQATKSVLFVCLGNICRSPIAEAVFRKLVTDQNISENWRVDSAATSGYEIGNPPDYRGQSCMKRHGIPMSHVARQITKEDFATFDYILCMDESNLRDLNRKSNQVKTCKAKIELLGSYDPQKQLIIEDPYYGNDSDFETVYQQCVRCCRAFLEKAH
# EXPERIMENT DESCRIPTION: Inhibition of human LMW-PTPase isoform 2
Please note: IC50 exactly at 2000 µM is label 0. Only values below 2000 µM get label 1.

Study these solved cases before continuing.
>  <MOL>
Nc1ccncc1CCP(=O)(O)O

>  <ASSIGNED LABEL>
label 0

$$$$
>  <MOL>
Nc1ccccc1CCP(=O)(O)O

>  <ASSIGNED LABEL>
label 1

$$$$
>  <MOL>
O=C(O)c1ccc(COc2cccc(/C=C3\S/C(=N\c4ccccc4)N(Cc4ccc(C(=O)O)cc4)C3=O)c2)cc1

>  <ASSIGNED LABEL>
label 1

$$$$
>  <MOL>
Nc1ccccc1/C=C/P(=O)(O)O

>  <ASSIGNED LABEL>
label 0

$$$$
>  <MOL>
O=P(O)(O)CCc1cccc2ccccc12

>  <ASSIGNED LABEL>
label 0

$$$$

In: Hello, is IC50 of the following compound strictly smaller than 2000 µM? `O=P(O)(O)CCc1cncc2cc[nH]c12`
Out: label 0
